human NK1 receptor (Homo sapiens): recorded pIC50 for assorted molecules
Sequence (P25103 whole entry): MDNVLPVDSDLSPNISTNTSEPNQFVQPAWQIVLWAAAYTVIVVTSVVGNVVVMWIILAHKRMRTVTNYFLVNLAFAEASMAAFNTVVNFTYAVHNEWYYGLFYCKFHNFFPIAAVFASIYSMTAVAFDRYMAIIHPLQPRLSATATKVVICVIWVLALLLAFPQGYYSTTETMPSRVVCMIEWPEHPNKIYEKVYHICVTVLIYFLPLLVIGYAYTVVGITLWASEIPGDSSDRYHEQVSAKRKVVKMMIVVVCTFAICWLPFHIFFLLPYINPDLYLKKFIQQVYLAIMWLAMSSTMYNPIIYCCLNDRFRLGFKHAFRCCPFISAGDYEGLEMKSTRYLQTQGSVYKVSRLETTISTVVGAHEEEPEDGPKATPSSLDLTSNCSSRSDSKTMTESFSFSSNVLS
// scale note: pIC50 = -log10(conc_M); give the bare number

Answered cases to consult:
molecule: C[C@@H](O[C@@H](OCC(=O)O)C(O)c1ccc(F)cc1)c1cc(C(F)(F)F)cc(C(F)(F)F)c1 (stereo partly shown) [Metabolite M-6]
target-entity: human NK1 receptor (Homo sapiens)
reported-property: pIC50
result-value: 7.74

molecule: C[C@@H](O[C@H]1OCC(=O)N[C@H]1c1ccc(F)cc1)c1cc(C(F)(F)F)cc(C(F)(F)F)c1 [Metabolite M-3]
target-entity: human NK1 receptor (Homo sapiens)
reported-property: pIC50
result-value: 8.40

Let us move to another entry and its pIC50.
human NK1 receptor (Homo sapiens) / pIC50 / C[C@@H](O[C@H]1OCCN[C@H]1c1ccc(F)cc1)c1cc(C(F)(F)F)cc(C(F)(F)F)c1 [Metabolite M-1] : value?
9.00
